Heads up, these compounds all have IC50 values measured for Cholinesterase (Equus caballus).
Lab book: enter the figure in µM, no units written.

{"Compound": "COc1cc(/C=C/c2ccc(OCCCCCCN3CCCCC3C)cc2)cc(OC)c1 (configuration not stated)", "IC50 [µM]": 10.1}

### Prompt For the record COc1cc(/C=C/c2ccc(OCCCCCN(C)Cc3ccccc3)cc2)cc(OC)c1 , what value of IC50 is listed for Cholinesterase (Equus caballus)?
### Response 43.7

### Prompt For the record CCN(CCCCCCOc1ccc(/C=C/c2cc(OC)cc(OC)c2)cc1)Cc1ccccc1OC , what value of IC50 is listed for Cholinesterase (Equus caballus)?
### Response 2.27

### Prompt For the record COc1cc(/C=C/c2ccc(OCCN(C)Cc3ccccc3)cc2)cc(OC)c1 , what value of IC50 is listed for Cholinesterase (Equus caballus)?
### Response 89.6

Data provenance: ChEMBL document CHEMBL3132840
